The reported numbers originate from the supplement of paper PMC7125110.

B1: glmS ribozyme (parent)
chain: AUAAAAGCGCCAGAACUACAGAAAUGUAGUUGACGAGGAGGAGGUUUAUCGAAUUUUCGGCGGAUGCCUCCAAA

Variants of: B1
assay_procedure: KM; higher = weaker cofactor use; RNA array
condition_notes: with glucosamine-6-phosphate
Assign KM to each entry below.
One number for each entry, in µM.

>>> measured_number("AUAAAAGCGCCAAAACUACAGAAAUGUAGUUGACGAGGAGGAGGUUUAUCGAAUUUUCGGCGGAUGACUCCAAA [G13A C67A]")
4490
>>> measured_number("AUAAAAGCGCCCGAUUUACAGAAAUGUAGUUGACGAGGAGGAGGUUUAUCGAAUUUUCGGCGGAUGCCUUCAAA [A12C A15U C16U C70U]")
514
>>> measured_number("AUAAAAGCACCAGAACUACAGAAAUGUAGUUGACGAGGAGGAGGUUUAUCGAAUAUUCGGCGGAUGCCUCCAAA [G9A U55A]")
1410

I need KM for every entry listed below, if you could help.
1. AUAAAAGCGCCACAACUACAGAAAUGUAGUAGACGAGGAGGAGGUUUAUCGAAUUUUCGGCGGAUGCCUCCAAA [G13C U31A]
2. AUAAAAGCGCCAGAACUACAGAAAUGUAAUUGACGAGGAAGAGGUUUAUCGAAUUUUCGGCGGAUGCCUCCAAA [G29A G40A]
3. AUAAAAGCGCCAGAACUACAGAAAUGUAGUUGACGAGGAGGAGGUUUAUCGAAGUUUGGGCGGAUGCCUCCAAA [U54G C58G]

**A:**
3100
1090
4280

I need KM for every entry listed below, if you could help.
1. AUAAAAGCGCCAGAACUACAGAAAUGUAGUUGACGAGGACGAGGUUCAUCGAAUUUUCGGCGGAUGCCUCCAAA [G40C U47C]
2. AUAAAAGCGUCAGAACUACAGAAAUGUAGUUGACGAGGAGGAGGUUCAUCGAAUUGUCGGCGGAUGCUACCAAA [C10U U47C U56G C68U U69A]
3. AUAAAAGCGCAAGAACUACAGAAAUGUAGUUGACGAGGAGGAGGUUUAUCGAAUUUUCUGCGGAUGCCUCCAAA [C11A G59U]
4. AUAAAAGCGCCAGAACUACAGAAAUGUAGUUGACGAGGAGAAGGUUUAUCGAAUUUUCGGCGGAUUCCUCCAAA [G41A G66U]
5. AUAAAAGCGCAAGAACUACAGAAAUGUAGUUGACGAGGAGGAGGUUUAUCGAGUUUUCGGCGGAUGCCUCCAAA [C11A A53G]
6. AUAAAAGCGCCAGAACUACAGAAAUGUAGUUGACGAGGAGGAGGUUUAUCGACUUUUCGGCGGAUUCCUCCAAA [A53C G66U]

**A:**
1: 2020; 2: 429; 3: 2310; 4: 2190; 5: 2130; 6: 1770

I need KM for every entry listed below, if you could help.
1. AUAAAAGCGCCAGAACUACAGAAAUGUAGUUGACGAGGAGGAGGUUUAUCGAAUUUUCGGCGGGUGUCUCCAAA [A64G C67U]
2. AUAAAAGCGCCAGAACUACAGAAAUGUAGUCGACGAGGAGGAGGUUUAUCGAAUUUUCGGCGGAUGGCUCCAAA [U31C C67G]
3. AUAAAAGCGCCAGAACUACAGAAAUGUAGCUGACGAAGAGGAGGUUUAUCGAAUUUUCGGCGGAUGCCUCCAAA [U30C G37A]
4. AUAAAAGCGCCAGAACUACAGAAAUGUAGUUGACGAGGAGGAGGUUUAUCGAAUCUUCGGCGGAUCCCUCCAAA [U55C G66C]
5. AUAAAAGCGCCAGAACUACAGAAAUGUAGUUGACGAGGAGGAGGCUUAUCGAAUUUCCGGCGGAUGCCUCCAAA [U45C U57C]
6. AUAAAAGCGCCAGAACUACAGAAAUGUAGCUGACGAGGAGGAGGUUUAUCGAUUUUUCGGCGGAUGCCUCCAAA [U30C A53U]

**A:**
[1860, 467, 710, 1950, 6920, 1290]

I need KM for every entry listed below, if you could help.
1. AUAAAAGCGCCAGAACUACAGAAAUGUAGAUGCCGAGGAGGAGGUUUAUCGAAUUUUCGGCGGAUGCCUCCAAA [U30A A33C]
2. AUAAAAGCGCCAGAACUACAGAAAUGUAAUUGACGAGGAGGAGGUUUAUCGAAAUUUCGGCGGAUGCCUCCAAA [G29A U54A]

**A:**
[4930, 3150]
